system: DMS-114; test: NCI tumour cell line growth inhibition, 48 h
Active and inactive are the calls of the source. Cut-off read from the data, not from the text of the source: active = GI50 up to about 1.1 µM and inactive = higher.
Task for the reader: assign each of the following molecules its reported GI50.

## Input GET /values?readout=GI50&item= Cc1cccc(C)c1N1C(=O)C(=O)C(c2nc3ccccc3s2)/C(=N/NC(=O)NN)C1=O (stereo not drawn)
## Output > 100 µM (inactive)

## Input Report GI50 for CN(C(=O)C12C3C4C1C1C4(C(=O)C45C6C7C4C4C5C6C74C)C3C12C)C(C)(C)C (stereo not drawn) please.
## Output 39.8 µM (inactive)

## Input Quick check: GI50 of COc1cc(NC(C)CCCN)c2ncccc2c1 (stereo not drawn) [PRIMAQUINE PHOSPHATE] ?
## Output 37.7 µM (inactive)

Source of measurements: ChEMBL document CHEMBL1201862
